The reported numbers originate from patent US12371428B2.

experimental.system: KDR (phospho-KDR, VEGF165-stimulated HUVEC cells) (Homo sapiens (Human))
assay.summary: KDR autophosphorylation ELISA in HUVEC cells (Example G)
Type: cell-based
setup.conditions: cellular activity; KDR autophosphorylation ELISA in HUVEC cells
Reported IC50 values follow for various compounds

INSERT INTO measurements (compound, experimental_system, assay_readout, measured_value) VALUES
  ('COc1cc2nccc(Oc3ccc(NC(=O)c4cnc(C)c(-c5ccc(F)cc5C)c4O)cc3F)c2nc1OC(C)C [Compound 416]', 'KDR (phospho-KDR, VEGF165-stimulated HUVEC cells) (Homo sapiens (Human))', 'IC50', '< 100 nM'),
  ('Cc1ccc(C(=O)Nc2ccc(Oc3ccnc4cc(OCc5ccccc5)cnc34)c(F)c2)c(=O)n1-c1ccc(F)cc1 [Compound 275]', 'KDR (phospho-KDR, VEGF165-stimulated HUVEC cells) (Homo sapiens (Human))', 'IC50', '< 100 nM'),
  ('Cc1ccc(C(=O)Nc2ccc(Oc3ccnc4ccc(OCCN(C)C)nc34)c(F)c2)c(=O)n1-c1ccc(F)cc1 [Compound 353]', 'KDR (phospho-KDR, VEGF165-stimulated HUVEC cells) (Homo sapiens (Human))', 'IC50', '< 100 nM'),
  ('COc1cnc2c(Oc3ccc(NC(=O)c4c(C)c(C)c(C)n(-c5ccc(F)cc5)c4=O)cc3F)ccnc2c1 [Compound 316]', 'KDR (phospho-KDR, VEGF165-stimulated HUVEC cells) (Homo sapiens (Human))', 'IC50', '< 100 nM'),
  ('COc1ccc2nccc(Oc3ccc(NC(=O)c4c(C)nc(C)c(-c5ccc(F)cc5)c4O)cc3)c2n1 [Compound 340]', 'KDR (phospho-KDR, VEGF165-stimulated HUVEC cells) (Homo sapiens (Human))', 'IC50', '< 100 nM');

For KDR (phospho-KDR, VEGF165-stimulated HUVEC cells) (Homo sapiens (Human)), provide IC50 of COCCOc1nc2c(Oc3ccc(NC(=O)c4n[nH]c(C)c(-c5ccc(F)cc5C)c4=O)cc3F)ccnc2cc1OC [Compound 252] please.
< 100 nM

For KDR (phospho-KDR, VEGF165-stimulated HUVEC cells) (Homo sapiens (Human)), provide IC50 of COc1cnc2c(Oc3ccc(NC(=O)c4nn(C)c(C)c(-c5ccc(F)cc5C)c4=O)cc3)ccnc2c1 [Compound 514] please.
< 100 nM

====

Reported pIC50 values follow for various compounds
experimental.system: Human KDR (residues 790-1356) (Homo sapiens (Human), UniProt P35968)
Sequence (P35968 790-1356): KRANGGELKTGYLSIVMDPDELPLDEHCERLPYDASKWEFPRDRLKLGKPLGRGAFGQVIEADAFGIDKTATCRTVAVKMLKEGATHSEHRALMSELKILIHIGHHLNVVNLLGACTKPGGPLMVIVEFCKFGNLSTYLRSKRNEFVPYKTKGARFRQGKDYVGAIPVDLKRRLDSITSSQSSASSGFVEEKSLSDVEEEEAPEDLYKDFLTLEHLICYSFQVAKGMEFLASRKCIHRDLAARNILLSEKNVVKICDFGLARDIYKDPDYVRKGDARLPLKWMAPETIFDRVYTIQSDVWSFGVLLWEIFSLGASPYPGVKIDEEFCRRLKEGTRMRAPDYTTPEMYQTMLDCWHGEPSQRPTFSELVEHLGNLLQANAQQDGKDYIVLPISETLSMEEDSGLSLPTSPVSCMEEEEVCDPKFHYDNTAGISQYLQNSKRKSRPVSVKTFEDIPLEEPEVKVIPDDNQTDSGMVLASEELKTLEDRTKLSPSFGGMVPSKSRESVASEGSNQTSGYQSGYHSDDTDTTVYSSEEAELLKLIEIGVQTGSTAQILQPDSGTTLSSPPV
assay.summary: Human KDR kinase assay, HTRF KinEase (Example B-2)
Type: biochemical
setup.conditions: protocol of Example B-2 (other compounds)
Experimental: Kinase activity and compound inhibition were also investigated using the HTRF® KinEase assay (Cisbio Cat #62TKOPEB) per manufacturer's instructions. […] After a 60 min incubation at room temperature, the fluorescence at 665 nm and 620 nm was read on an Envision microplate reader (Perkin Elmer). Kinase activity normalized to DMSO (100% activity) and reference compound at […] and (0% activity) was calculated using the fluorescence ratio 620/665×10,000. […]
pIC50: −log10 of the molar value.

INSERT INTO assay_data (compound, assay_readout, measured_value) VALUES
  ('Cc1cc(F)ccc1-c1c(C)nnc(C(=O)Nc2ccc(Oc3ccnc4cc(C)c(F)nc34)c(F)c2)c1O [Compound 430]', 'pIC50', '< 6.52'),
  ('COCc1nc(C)c(-c2ccc(F)cc2)c(O)c1C(=O)Nc1ccc(Oc2ccnc3cc(OC)c(OC)nc23)cc1 [Compound 190]', 'pIC50', '> 7.00'),
  ('O=C(Nc1ccc(Oc2ccnc3cccnc23)c(F)c1)c1cccn(-c2ccc(F)cc2)c1=O [Compound 304]', 'pIC50', '< 6.52'),
  ('CCc1cc2nccc(Oc3ccc(NC(=O)c4cnc(C)c(-c5ccc(F)cc5C)c4O)cc3F)c2nc1OC [Compound 421]', 'pIC50', '< 6.52'),
  ('COc1cc2nccc(Oc3ncc(NC(=O)c4cn(C5CN(C)C5)cc(-c5ccc(F)cc5)c4=O)cc3F)c2cc1OC [Compound 400]', 'pIC50', '< 6.52'),
  ('COc1ccc2nccc(Oc3ccc(NC(=O)c4ccc(C)n(-c5ccc(F)cc5)c4=O)cc3F)c2c1 [Compound 346]', 'pIC50', '6.52 to 7.00');

Name the reported pIC50 value associated with the compound COc1cc2nccc(Oc3ccc(NC(=O)c4cn(-c5ccn(C)n5)cc(-c5ccc(F)cc5)c4=O)cc3F)c2nc1OC [Compound 53]
< 6.52

====

experimental.system: KDR (phospho-KDR, VEGF165-stimulated HUVEC cells) (Homo sapiens (Human), UniProt P35968)
Sequence (P35968 20-1356): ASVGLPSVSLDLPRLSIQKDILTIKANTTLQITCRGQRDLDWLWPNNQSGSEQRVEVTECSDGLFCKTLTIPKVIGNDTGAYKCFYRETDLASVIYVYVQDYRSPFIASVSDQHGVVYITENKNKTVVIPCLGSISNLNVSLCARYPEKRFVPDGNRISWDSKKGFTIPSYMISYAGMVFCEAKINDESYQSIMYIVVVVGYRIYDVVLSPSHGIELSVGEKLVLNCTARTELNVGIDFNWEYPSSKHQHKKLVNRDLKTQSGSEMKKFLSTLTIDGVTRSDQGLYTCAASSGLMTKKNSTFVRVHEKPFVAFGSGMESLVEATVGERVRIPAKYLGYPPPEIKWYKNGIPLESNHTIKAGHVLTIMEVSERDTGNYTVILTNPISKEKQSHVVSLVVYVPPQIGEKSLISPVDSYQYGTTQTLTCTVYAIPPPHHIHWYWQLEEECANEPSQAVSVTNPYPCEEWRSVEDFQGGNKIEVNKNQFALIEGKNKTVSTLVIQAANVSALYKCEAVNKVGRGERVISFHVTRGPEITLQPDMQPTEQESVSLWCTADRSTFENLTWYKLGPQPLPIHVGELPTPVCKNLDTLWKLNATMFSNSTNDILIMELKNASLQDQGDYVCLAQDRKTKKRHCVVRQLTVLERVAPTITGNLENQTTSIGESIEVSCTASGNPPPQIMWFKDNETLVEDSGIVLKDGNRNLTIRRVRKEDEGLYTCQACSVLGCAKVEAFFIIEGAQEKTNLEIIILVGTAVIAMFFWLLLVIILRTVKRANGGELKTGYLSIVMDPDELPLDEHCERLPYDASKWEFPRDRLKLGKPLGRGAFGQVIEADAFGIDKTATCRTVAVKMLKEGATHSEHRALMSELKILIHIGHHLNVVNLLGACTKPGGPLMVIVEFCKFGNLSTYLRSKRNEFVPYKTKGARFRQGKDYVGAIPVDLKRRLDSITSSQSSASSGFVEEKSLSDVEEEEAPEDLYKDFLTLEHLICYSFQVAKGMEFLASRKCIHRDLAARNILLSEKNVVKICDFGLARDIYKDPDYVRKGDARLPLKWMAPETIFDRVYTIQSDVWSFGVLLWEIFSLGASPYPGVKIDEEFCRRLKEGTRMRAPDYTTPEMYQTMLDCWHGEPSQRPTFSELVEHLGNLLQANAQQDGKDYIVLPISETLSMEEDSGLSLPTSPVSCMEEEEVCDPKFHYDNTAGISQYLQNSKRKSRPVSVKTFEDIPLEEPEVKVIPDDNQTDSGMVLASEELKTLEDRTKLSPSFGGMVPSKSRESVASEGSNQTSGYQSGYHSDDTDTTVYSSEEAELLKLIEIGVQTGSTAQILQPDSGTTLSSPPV
assay.summary: KDR autophosphorylation ELISA in HUVEC cells (Example G)
Format: cell-based
setup.conditions: cellular activity; KDR autophosphorylation ELISA in HUVEC cells
assay.readout: IC50

For KDR (phospho-KDR, VEGF165-stimulated HUVEC cells) (Homo sapiens (Human), UniProt P35968), provide IC50 of "COc1cc2nccc(Oc3ccc(NC(=O)c4cn5c(c(-c6ccc(F)cc6)c4=O)COCC5)cc3)c2nc1OC" please.
100 to 300 nM

For KDR (phospho-KDR, VEGF165-stimulated HUVEC cells) (Homo sapiens (Human), UniProt P35968), provide IC50 of "COc1cnc2c(Oc3ccc(NC(=O)c4c(C)cc(C)n(-c5ccc(F)cc5)c4=O)cc3)ccnc2c1" please.
< 100 nM

For KDR (phospho-KDR, VEGF165-stimulated HUVEC cells) (Homo sapiens (Human), UniProt P35968), provide IC50 of "Cc1ccc(C(=O)Nc2ccc(Oc3ccnc4cc(O)cnc34)c(F)c2)c(=O)n1-c1ccc(F)cc1" please.
< 100 nM

====

experimental.system: Met (phospho-Met, HGF-stimulated PC-3 prostate cancer cells) (Homo sapiens (Human))
Sequence (P08581 25-1390): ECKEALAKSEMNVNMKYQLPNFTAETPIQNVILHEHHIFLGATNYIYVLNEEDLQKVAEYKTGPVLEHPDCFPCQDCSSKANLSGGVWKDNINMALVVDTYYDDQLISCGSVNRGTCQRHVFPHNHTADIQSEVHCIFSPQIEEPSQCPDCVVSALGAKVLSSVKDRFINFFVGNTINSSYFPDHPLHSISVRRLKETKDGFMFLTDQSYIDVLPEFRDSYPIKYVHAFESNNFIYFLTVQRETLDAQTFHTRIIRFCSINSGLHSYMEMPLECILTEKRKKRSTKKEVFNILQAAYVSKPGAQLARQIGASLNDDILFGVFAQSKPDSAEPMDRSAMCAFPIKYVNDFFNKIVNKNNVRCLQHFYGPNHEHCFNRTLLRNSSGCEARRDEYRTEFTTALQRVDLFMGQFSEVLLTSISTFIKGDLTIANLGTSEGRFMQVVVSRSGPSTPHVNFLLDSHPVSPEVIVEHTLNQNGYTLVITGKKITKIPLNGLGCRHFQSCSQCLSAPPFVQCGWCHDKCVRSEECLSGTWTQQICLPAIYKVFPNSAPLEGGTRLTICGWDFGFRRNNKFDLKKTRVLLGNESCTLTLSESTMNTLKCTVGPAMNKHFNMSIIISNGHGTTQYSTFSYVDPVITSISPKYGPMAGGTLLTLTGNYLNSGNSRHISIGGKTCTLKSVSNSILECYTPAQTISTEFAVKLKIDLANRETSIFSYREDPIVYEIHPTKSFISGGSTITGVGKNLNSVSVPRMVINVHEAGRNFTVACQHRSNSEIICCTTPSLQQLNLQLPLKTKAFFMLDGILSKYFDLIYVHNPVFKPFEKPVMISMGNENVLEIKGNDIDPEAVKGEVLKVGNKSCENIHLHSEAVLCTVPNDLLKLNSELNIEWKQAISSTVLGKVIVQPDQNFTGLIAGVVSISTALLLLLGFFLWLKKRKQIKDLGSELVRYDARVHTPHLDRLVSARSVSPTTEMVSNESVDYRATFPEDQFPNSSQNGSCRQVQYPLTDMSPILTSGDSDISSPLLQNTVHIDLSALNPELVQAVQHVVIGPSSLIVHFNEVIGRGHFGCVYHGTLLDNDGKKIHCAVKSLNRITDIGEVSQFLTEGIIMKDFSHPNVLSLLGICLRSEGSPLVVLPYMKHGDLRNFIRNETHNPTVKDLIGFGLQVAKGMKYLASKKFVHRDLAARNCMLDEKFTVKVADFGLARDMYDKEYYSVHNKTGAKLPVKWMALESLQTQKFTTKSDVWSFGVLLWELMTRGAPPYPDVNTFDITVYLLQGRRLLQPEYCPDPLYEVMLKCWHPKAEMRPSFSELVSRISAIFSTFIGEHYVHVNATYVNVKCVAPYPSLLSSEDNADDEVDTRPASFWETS
assay.summary: Met autophosphorylation ELISA in PC-3 cells (Example F)
Assay type: cell-based
setup.conditions: cellular activity; Met autophosphorylation ELISA in PC-3 cells; read-out: c-Met IC50
Description: PC-3 prostate cancer cells (ATCC #CRL-1435) were seeded at 4×10^4 cells/well onto 24-well plates (Greiner #662165), in DMEM (Thermo Fisher #11995-040) containing 10% FBS (Thermo Fisher #26140-079), 1% MEM NEAA (Thermo Fisher #11140-050), 1% GlutaMax (Thermo Fisher #35050-061), and 1% Penicillin Streptomycin (Thermo Fisher #15140-122). […] IC50 values were calculated by nonlinear regression analysis using a 4-parameter logistic curve fit in ActivityBase XE (IDBS).
pIC50: −log10 of the molar value.
assay.readout: pIC50

Solved cases (2 shown):
INSERT INTO results (compound_structure_string, experimental_system, measured_value) VALUES
  ('COc1ccc2nccc(Oc3ccc(NC(=O)c4ccc(C)n(-c5ccc(F)cc5C)c4=O)cc3)c2n1', 'Met (phospho-Met, HGF-stimulated PC-3 prostate cancer cells) (Homo sapiens (Human))', '6.52 to 7.00'),
  ('COc1cc2nccc(Oc3ccc(NC(=O)c4c(C)cc(C)n(-c5ccc(F)cc5)c4=O)cc3F)c2nc1OC', 'Met (phospho-Met, HGF-stimulated PC-3 prostate cancer cells) (Homo sapiens (Human))', '> 7.00');

In the following, a different compound is considered.
Name the reported pIC50 value associated with the compound "COCc1nc(C)c(-c2ccc(F)cc2)c(O)c1C(=O)Nc1ccc(Oc2ccnc3cc(OC)cnc23)cc1"
> 7.00

====

Reported pIC50 values follow for various compounds
experimental.system: KDR (phospho-KDR, VEGF165-stimulated HUVEC cells) (Homo sapiens (Human))
assay.summary: KDR autophosphorylation ELISA in HUVEC cells (Example G)
Type: cell-based
setup.conditions: cellular activity; KDR autophosphorylation ELISA in HUVEC cells
pIC50: −log10 of the molar value.

Solved cases (8 shown):
INSERT INTO results (compound, measured_value) VALUES
  ('COc1cc2nccc(Oc3ncc(NC(=O)c4cn(C5CN(C)C5)cc(-c5ccc(F)cc5)c4=O)cc3F)c2cc1OC', '< 6.52'),
  ('COc1cc2nccc(Oc3ccc(NC(=O)c4c(C)ncc(-c5ccc(F)c(C)c5)c4O)cc3F)c2nc1OC', '> 7.00'),
  ('COc1cc2nccc(Oc3ccc(NC(=O)c4cn(C(C)(C)CO)cc(-c5ccc(F)cc5)c4=O)cc3F)c2cc1OC', '< 6.52'),
  ('COc1cc2nccc(Oc3ccc(NC(=O)c4c5c(cn(-c6ccc(F)cc6)c4=O)C(=O)CCC5)cc3)c2nc1OC', '< 6.52'),
  ('COc1cc2nccc(Oc3ccc(NC(=O)c4cn(C(C)C)c(C)c(-c5ccc(Cl)c(Cl)c5)c4=O)cc3F)c2nc1OC', '6.52 to 7.00'),
  ('COc1cc2nccc(Oc3ccc(NC(=O)c4cnc(C)c(-c5ccc(F)cc5C)c4O)cc3F)c2nc1OC', '> 7.00'),
  ('COc1cnc2c(Oc3ccc(NC(=O)c4cn(C)c(C#N)c(-c5ccc(F)cc5)c4=O)cc3F)ccnc2c1', '< 6.52'),
  ('COc1cc2nccc(Oc3ccc(NC(=O)c4cn(C)c(C)c(-c5ccc(F)cc5F)c4=O)cc3)c2nc1OC', '> 7.00');

Name the reported pIC50 value associated with the compound "COc1cc2nccc(Oc3ccc(NC(=O)c4c(C)c(Br)c(C)n(-c5ccc(F)cc5)c4=O)cc3)c2nc1OC"
> 7.00

Name the reported pIC50 value associated with the compound "COc1cc2nccc(Oc3ccc(NC(=O)c4cn(C)c(CF)c(-c5ccc(F)cc5)c4=O)cc3)c2nc1OC"
6.52 to 7.00
